- ASSAY_PROCEDURE: yeast display, Sf9 membrane polyspecificity reagent, FACS + sequencing; frameworks hold sequencing errors
ATTRIBUTE_MEASURED: polyreactivity (PSR sort gate)

The cases that follow already have their polyreactivity (PSR sort gate) on record.
INSERT INTO results (residue_sequence, attribute_measured, reported_result) VALUES
  ('QVQLVESGGGLVQAGGSLRLSCAASGSTFEWYTMGWYRQAPGKERELVAAINGGGSTKYADSVKGRFTISRDNAKKTVYLQMNSLKPEDTAVYYCNLKYGMYWGQGTQVTVSS', 'polyreactivity (PSR sort gate)', 'high polyreactivity'),
  ('QVQLVESGGGLVQAGGSLRLSCAASGSIFLWNAMGWYRQAPGKERELVAAITWRGGRTSYADSVKGRFTISRDNAKNTVYLQMNSLKPEDTAVYYCAKEAHPPWTGQDVFRSYDYWGQGTQVTVSS', 'polyreactivity (PSR sort gate)', 'low polyreactivity'),
  ('QVQLVESCGGIVQAGGSHRLSCAASGSIFAWYAMGWYRQAPGKERELVAAITYTGGRTYYADSVKGRFTISRDIAKYTVYLQMISLNPEDTAVFYCAKDGPATVRRGYDYWGQGTQVTVSS', 'polyreactivity (PSR sort gate)', 'high polyreactivity'),
  ('QVQLVESGGGLVQAGGSLRLSCAASGFIFNNYGMGWSRQAPGKERELVATISRGASTNYADSVKGRFTISRDNAKNTVYLQMNSLKPEDTAVYYCAKDYGDWGQGTQVTVSS', 'polyreactivity (PSR sort gate)', 'low polyreactivity');

For reference, reported polyreactivity (PSR sort gate) for QDQLVDSGGGLLQAGGSLRLSCAASGRIFVWNTMGWYRQAPGKERELVAAITSGGSTTFADSVKGRFTISRDNAKYTVYLQMNSLKPEDTAVYYCNTELDLYHPGDDYWGQGTQVTVSS stands at high polyreactivity

Item: QVQLVESGGGLVQAGGSLRLSCAACGFTFTAYAMVWYRQAPGKERELVAAISYRGGRTNYAYSVKGRFTISRDNAKNTVYLQMNSLKPEDTAVYYCAARPRISTREMDYWRQGTQVTVSS | polyreactivity (PSR sort gate): high polyreactivity

The value of polyreactivity (PSR sort gate) measured for the sequence QVQLVESGGGLVHAGGSLRLSCAASGRTFNYYAMGWYRQAPGKERELVAAISKSTGNTYYADSVKGRFTISRDNAKNTVYLQMNSLKPEDTAVYYCAAKKRGSHVYQYDYCGQGTQVTVSS turned out to be low polyreactivity

In plain terms, QVQLVESGGGLVQAGGSLRLSCAASGRTFKFYAMGWYRQAPGKERELVARITSNSGSTYYADSVKGRFTISRDNAKHTVYLQLNSLKPEETAVYYCNARYGYTYRTFRYDYWGQGSQVTVSS has a documented polyreactivity (PSR sort gate) of high polyreactivity

Given item QVQLVESGGGLVQAGGSLRLSCAASGSTFSWYSMGWYRQAPGKQRELVAAISSRGGRTYYADSVKGRFTISRDNAKNTVYLQMNSLKPDDTAVYFCAARSRRGEYDYWGQGTQVTVSS , the value recorded as its polyreactivity (PSR sort gate) is high polyreactivity

Memo: QVQLVASGGGLVQAGGSLRLSCAASGYTLFRNAMGWYRQAPGKERELVAAISRSGARTYYADSVKGRFTISRDNAKNTVYLQMNSLLPEDTAVYYCAAVIKWTKDDYWGQGTQVTVSS , reported polyreactivity (PSR sort gate): high polyreactivity

Reported polyreactivity (PSR sort gate) for QVQLVESGGGLVQAGGSLRLSCAASGSIFRQYAMGLSRQAPGKERELVAAITYSGGNTYYADSVKGRFTISRDNAKNPVYLQLNSLKPEDTAVYYCAADYGSRSWEYTYWGQGTQVTVSS was low polyreactivity

Sample QGQLQESGGGLVKAGGSLRLSCPASGNISNHKDMGWYRQAPGKESEFVAGITAGGITNYADSVTGRFTICRDNAKNTVDLVMNSLKPEDTAVYYSAAYPDYAKSYGYWGQGTQATVSS ; polyreactivity (PSR sort gate) observed: low polyreactivity

----------
- ASSAY_PROCEDURE: yeast display, Sf9 membrane polyspecificity reagent, FACS + sequencing; frameworks hold sequencing errors
ATTRIBUTE_MEASURED: polyreactivity (PSR sort gate)

Examples with answers:
INSERT INTO measurements (residue_sequence, attribute_measured, reported_result) VALUES
  ('QVQLVESGGGLVQAGGSLRLSCSASGNNFESYGMGWYRQAPGKERELVATINTSSGSTNYADSVKGRFTISRDNAKNTVYVQMNSLKPEDTAVYYCAAVFVEQGEDDYWGQGTQVTVSS', 'polyreactivity (PSR sort gate)', 'low polyreactivity'),
  ('QVQLVESVGGLVQAGGSLRLSCAASGSTLYPYAMGWYRQAPGKERELVAVITLRGGSTYYADSVKGRFTISRDNAKNTVYLQMNSLKPEDTAVYYCAARKRPFYKYDYWGQGTQVTVSS', 'polyreactivity (PSR sort gate)', 'high polyreactivity'),
  ('QVQLVESGGGLDQAGGSLRLSCAASGSTIHRNAMGWYRQAPGKERELVAAITSGGSTNYADSVKGRFTISRDNAKNTVYLQMNSLKPEDTAVYYCDKDYRHYNRGWYDYWGQGTQVTVSS', 'polyreactivity (PSR sort gate)', 'low polyreactivity'),
  ('QVQHVESGGGLVQAGGSLRLSCAASGGTFVWYAMGWYRQAPGKERELVAAISSSGGRTYYADSVKGRFTISRDNAKNTVYLQMNSLKPEDTAVYYCNAAPYYVLYLLWSSNTYDYWGQGTQVTVSS', 'polyreactivity (PSR sort gate)', 'high polyreactivity'),
  ('QVQHVESGGGLVQAGGSLRLSCAASGRTFRRNAVGWYRQAPGNERELVATISRGGSTTYADSVKGRFTISRDKAKNTVYLQMNSLKPEDTAVYYCAARTSKRYSYADHDYWGQGTQVTVSS', 'polyreactivity (PSR sort gate)', 'low polyreactivity');

Field polyreactivity (PSR sort gate) (entry QVQLVESGGGLVQAGGSLRLSCAASGRIFTKNTMGWYRQAPAQERELVAAIRSRAGSTYYADSVKGRFTISRDNEKNTVYLQMNSLKPEDTAVYYCAVRWFRSVDFDYWGQGTQVTVSS ) reads low polyreactivity

Entry QVQLVESGGGLVQAGGSLRLSCAASGRIIRSYAMVWYRQAPGKERELVAAISYSGGSTYYADSVKGRFTISRDNAKNTVYLQMNSLKPEDTAVYYCAALPGERKYIYYGYDYWGQGTQVTVSS ; polyreactivity (PSR sort gate) = high polyreactivity

Lab note: QVQLQESGGGLVQAGGSLRLSCAVSGTIFFPLDMGWYRQAPGREREYVAAIAEGTSTYYADSVKGRFTISRDNAKNTVYPQMYSLNPEDTAVYYCAAYRSTPQQFHYWGQGTQVTVSS gave polyreactivity (PSR sort gate) of high polyreactivity

The recorded polyreactivity (PSR sort gate) for QVQLVESGGGLVQAGGSLRLSCAASGSIGYYVMGWYRQAPGKERELVAVITFGGASTYYADSVKGRFTISRDNAKNTVYLQMNSLKPEDTAVYYCARYQHRLVYGYGYWGQGTQVTVSS is low polyreactivity

Field polyreactivity (PSR sort gate) (entry QVQLVESGGGLVQAGGSLRLSCAASGSTFKRYAMGWYRQAPGKERELVATINSGTSTNYADSVKGRFTISRDNAKNTVYLEMNSLKPEETAVYYCAKSFRRSVGGYGYDYWGQGTQVSVSS ) reads low polyreactivity

Value of polyreactivity (PSR sort gate) reported for the sequence QVQLVETVGGLVQAGGSLRLRCAASGSIFLYNAMGWYRQAPGKERELFAVINGRGGTYYADSVKGRFTISRDNAKNTVYLQINSLKPEDTAVYYCATGYTPSAWYDSVRFEDRDSWGQGTQVTVSS is low polyreactivity

The reported polyreactivity (PSR sort gate) of the sequence QVQLVESGGGLVQAGGSLRLSCAASGSIFPRNAMGWYRQAPGKERELVAAITTTGGITHYADSVKGRFTISRDNAKNTVYLQMNSLKPEDTAVYYCNASYEYNAGRVETEYDYWGQGTQVTVSS was low polyreactivity

Input QVQLVESGGGLVQAGGSLRLSCAASGTFFIYAMGWYRHAPGKERELVATISTGGSTNYADSVKGRFTISRDNAKNTVYLQMNSLKQEDTAVYYCAAEWLYPHDGGYPRPMDYWGQGTQVTVSS . Output polyreactivity (PSR sort gate): low polyreactivity

----------
- ASSAY_PROCEDURE: yeast display, Sf9 membrane polyspecificity reagent, FACS + sequencing; frameworks hold sequencing errors
ATTRIBUTE_MEASURED: polyreactivity (PSR sort gate)

INSERT INTO results (residue_sequence, attribute_measured, reported_result) VALUES
  ('QVQLVESGGGLVQAGGSLRLSCAASGRTFRINAMGWYRQAPGKERELVAAITYRGANTYYADSVKGRFTISRDNAKNTVYLQMNSLKPEDTAVYYCAAEYAYHHVGFGYWGQGTQVTVSS', 'polyreactivity (PSR sort gate)', 'low polyreactivity'),
  ('QVQLVESGGGLVQAGGSLRLSCAASGSSFPGNAMGWYRQAPGKERELVARINDGADTNYADSVKGRFTISRDNAKNTVYLQMNSLKPEDTAVYYCAKPYYDGRTHFDSWGQGTQVTVSS', 'polyreactivity (PSR sort gate)', 'low polyreactivity');
